Listing: IC50 of selected compounds
Target: reuptake of dopamine(DA) in synaptosomes (Rattus norvegicus, UniProt P23977)
Construct: in synaptosomes as described in WO 97/16451; from tissue
Sequence (P23977 whole entry): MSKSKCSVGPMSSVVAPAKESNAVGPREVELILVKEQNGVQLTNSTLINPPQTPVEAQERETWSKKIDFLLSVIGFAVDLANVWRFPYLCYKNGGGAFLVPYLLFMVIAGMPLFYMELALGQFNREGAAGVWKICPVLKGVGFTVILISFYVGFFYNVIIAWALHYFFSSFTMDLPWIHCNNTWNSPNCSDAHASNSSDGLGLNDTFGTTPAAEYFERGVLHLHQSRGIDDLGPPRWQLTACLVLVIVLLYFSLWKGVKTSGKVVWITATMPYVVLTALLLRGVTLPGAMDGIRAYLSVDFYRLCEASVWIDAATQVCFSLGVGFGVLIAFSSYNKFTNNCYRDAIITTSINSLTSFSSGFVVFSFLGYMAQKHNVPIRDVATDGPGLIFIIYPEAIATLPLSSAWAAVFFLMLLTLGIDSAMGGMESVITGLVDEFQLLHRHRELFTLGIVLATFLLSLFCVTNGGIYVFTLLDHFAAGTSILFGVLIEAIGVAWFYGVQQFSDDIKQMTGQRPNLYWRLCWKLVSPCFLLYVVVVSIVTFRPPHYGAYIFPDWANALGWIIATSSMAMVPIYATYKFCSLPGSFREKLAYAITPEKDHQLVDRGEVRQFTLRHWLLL
Test: Inhibition of dopamine (DA) reuptake in synaptosomes
Type: biochemical
Conditions: synaptosomes, 3H-DA; read-out: DA-uptake IC50
Experimental: A number of compounds were tested for their ability to inhibit the reuptake of the monoamine neurotransmitters dopamine(DA) noradrenaline(NA) and serotonine(5-HT) in synaptosomes as described in WO 97/16451. The test values are given as IC50 (the concentration (μM) of the test substance which inhibits the specific binding of ^3H-DA, ^3H-NA, or ^3H-5-HT by 50%).
Measurement Name: IC50 (nM)

>  <Compound>
CC(C)C1CC2CCC(N2)C1COc1ccc(Cl)c(Cl)c1 (centres unmarked)

>  <Measurement Name>
IC50

>  <Cmp>
=

>  <Measured Result>
260

$$$$
>  <Compound>
CC(C)[C@@H]1CC2CCC([C@@H]1COc1ccc(Cl)c(Cl)c1)N2C (some centres unmarked)

>  <Measurement Name>
IC50

>  <Cmp>
>

>  <Measured Result>
1000

$$$$

* * *

Biological target: reuptake of serotonine(5-HT) in synaptosomes (Rattus norvegicus, UniProt P31652)
Construct: in synaptosomes as described in WO 97/16451
Sequence (P31652 whole entry): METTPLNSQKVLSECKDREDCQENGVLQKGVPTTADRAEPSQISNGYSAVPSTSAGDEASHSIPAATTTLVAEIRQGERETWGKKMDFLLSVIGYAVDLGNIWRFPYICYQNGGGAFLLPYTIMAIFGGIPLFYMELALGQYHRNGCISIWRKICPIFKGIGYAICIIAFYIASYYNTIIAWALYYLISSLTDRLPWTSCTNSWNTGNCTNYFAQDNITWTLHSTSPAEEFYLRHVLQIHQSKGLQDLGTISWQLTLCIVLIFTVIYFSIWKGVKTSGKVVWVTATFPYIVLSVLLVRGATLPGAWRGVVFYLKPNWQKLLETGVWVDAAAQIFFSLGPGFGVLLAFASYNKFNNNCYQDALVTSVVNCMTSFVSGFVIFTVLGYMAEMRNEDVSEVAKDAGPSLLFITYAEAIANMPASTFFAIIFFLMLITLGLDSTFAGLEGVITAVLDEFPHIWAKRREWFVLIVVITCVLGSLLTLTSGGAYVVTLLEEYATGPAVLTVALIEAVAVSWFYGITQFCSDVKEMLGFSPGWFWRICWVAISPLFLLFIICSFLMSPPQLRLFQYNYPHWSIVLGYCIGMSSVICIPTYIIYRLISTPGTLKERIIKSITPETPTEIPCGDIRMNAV
Test: Inhibition of serotonine (5-HT) reuptake in synaptosomes
Listing: IC50 of selected molecules
Measurement Name: IC50 (nM)

>  <Molecule>
CN1C2CCC1[C@H](COc1ccc(Cl)c(Cl)c1)[C@@H](c1ccccc1)C2 (stereo partly shown) [Compound 13a]

>  <Measurement Name>
IC50

>  <Measured Result>
0.4

$$$$
>  <Molecule>
CN1C2CCC1[C@H](COc1ccc(Cl)c(Cl)c1)[C@@H](c1ccc(Cl)c(Cl)c1)C2 (stereo partly shown) [Compound 15a]

>  <Measurement Name>
IC50

>  <Measured Result>
20

$$$$
>  <Molecule>
CC(C)C1CC2CCC(N2)C1COc1ccc(Cl)c(Cl)c1 (stereo not shown)

>  <Measurement Name>
IC50

>  <Measured Result>
9

$$$$
>  <Molecule>
CC(C)[C@@H]1CC2CCC([C@@H]1COc1ccc(Cl)c(Cl)c1)N2C (stereo partly shown)

>  <Measurement Name>
IC50

>  <Measured Result>
0.72

$$$$

Attribution: patent US20040235906A1
